- tested-target: T1, rabbit PAI-1 (rabbit)
- T1 chain: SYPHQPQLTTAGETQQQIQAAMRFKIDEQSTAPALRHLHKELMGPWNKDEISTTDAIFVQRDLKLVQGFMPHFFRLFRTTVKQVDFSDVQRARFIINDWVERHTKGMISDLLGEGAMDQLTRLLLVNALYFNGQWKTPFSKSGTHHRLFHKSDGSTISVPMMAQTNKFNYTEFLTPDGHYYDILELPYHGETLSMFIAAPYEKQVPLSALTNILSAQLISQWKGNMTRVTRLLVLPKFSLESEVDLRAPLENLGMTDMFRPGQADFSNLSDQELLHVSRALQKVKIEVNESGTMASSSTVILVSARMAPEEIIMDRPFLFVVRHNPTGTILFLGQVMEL
- method-summary: competition ELISA, IgG on plate, biotinylated active human PAI-1 against titrated unlabelled competitor
measurement-name: IC50 ratio rabbit/wt (fold)
Form entry: value (fold) — number only.

Please review the following examples before continuing.
Antibody 20 IgG1, not germlined (antibody, V domains shown, IgG1; also called Ab 20) VH: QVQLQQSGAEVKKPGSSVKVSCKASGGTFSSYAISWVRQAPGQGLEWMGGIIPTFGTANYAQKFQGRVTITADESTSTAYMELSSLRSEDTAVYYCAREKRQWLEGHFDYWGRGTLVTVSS VL: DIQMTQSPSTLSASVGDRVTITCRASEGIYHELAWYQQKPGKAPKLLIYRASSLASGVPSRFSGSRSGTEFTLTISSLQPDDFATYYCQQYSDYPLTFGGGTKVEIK : 9.1
Antibody 02 IgG4, not germlined (antibody, V domains shown, IgG4; also called Ab 02) VH: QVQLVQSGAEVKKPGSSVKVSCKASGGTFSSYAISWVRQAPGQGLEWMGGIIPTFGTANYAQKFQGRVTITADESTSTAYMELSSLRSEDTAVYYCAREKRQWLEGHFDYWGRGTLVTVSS VL: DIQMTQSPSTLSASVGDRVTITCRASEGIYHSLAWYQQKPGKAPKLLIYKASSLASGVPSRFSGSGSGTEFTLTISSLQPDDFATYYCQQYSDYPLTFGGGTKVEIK : 4.8

So what does the record say about IC50 ratio rabbit/wt for Antibody 16 IgG1, not germlined (antibody, V domains shown, IgG1; also called Ab 16) VH: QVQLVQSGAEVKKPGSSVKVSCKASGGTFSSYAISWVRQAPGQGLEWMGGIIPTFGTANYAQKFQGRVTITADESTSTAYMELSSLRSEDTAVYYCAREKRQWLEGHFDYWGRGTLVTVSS VL: DIQMTQSPSTLSASVGDRVTITCRASESIYHSLAWYQQKPGKAPKLLIYKASSLASGVPSRFSGSRSGTEFTLTISSLQPDDFATYYCQQYSNYPLTFGGGTKVEIK ?
7.9

Would you mind doing Antibody 01 IgG4, not germlined (antibody, V domains shown, IgG4; also called Ab 01) VH: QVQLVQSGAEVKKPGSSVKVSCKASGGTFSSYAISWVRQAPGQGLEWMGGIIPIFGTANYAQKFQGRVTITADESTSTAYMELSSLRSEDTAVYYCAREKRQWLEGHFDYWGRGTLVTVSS VL: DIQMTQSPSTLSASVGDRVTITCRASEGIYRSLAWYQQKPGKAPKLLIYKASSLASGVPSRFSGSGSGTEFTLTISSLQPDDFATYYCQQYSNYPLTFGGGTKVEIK as well?
9

Would you mind doing Antibody 27 IgG1, not germlined (antibody, V domains shown, IgG1; also called Ab 27) VH: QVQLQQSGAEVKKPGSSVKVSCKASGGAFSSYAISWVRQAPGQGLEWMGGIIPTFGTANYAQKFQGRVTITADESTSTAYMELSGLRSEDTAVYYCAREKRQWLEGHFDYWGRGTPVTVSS VL: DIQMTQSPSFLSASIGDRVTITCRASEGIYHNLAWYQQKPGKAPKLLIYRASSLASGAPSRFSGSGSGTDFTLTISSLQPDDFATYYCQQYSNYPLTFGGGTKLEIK as well?
85
